SUBJECT_OF_TEST: E-selectin (ES-Rg) (Homo sapiens) (UniProt P16581)
Sequence: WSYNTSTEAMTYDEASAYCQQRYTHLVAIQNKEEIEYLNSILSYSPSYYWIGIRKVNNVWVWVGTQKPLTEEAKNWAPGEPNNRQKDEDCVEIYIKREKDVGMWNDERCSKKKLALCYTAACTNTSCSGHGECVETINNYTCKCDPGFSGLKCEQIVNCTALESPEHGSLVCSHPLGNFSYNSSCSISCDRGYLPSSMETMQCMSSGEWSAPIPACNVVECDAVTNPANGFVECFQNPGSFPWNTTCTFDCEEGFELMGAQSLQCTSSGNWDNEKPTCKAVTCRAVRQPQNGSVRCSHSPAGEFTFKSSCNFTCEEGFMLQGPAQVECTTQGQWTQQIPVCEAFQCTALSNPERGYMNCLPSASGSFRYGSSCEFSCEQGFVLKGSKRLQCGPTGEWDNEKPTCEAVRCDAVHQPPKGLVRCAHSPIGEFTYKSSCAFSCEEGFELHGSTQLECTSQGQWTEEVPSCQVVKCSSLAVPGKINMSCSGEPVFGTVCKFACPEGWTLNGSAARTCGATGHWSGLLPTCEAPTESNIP
ASSAY_INFO: filter
SETTINGS: room temperature
pKd: −log10 of the molar value.

[
  {
    "SEQUENCE_STRING": "CTACCTACGATCTGACTAGCCGAGGTAGTCGTTATAGGGTRCRCACGACACAAARCRGTRGCTTACTCTCATGTAGTTCC [LD127]",
    "SUBJECT_OF_TEST": "E-selectin (ES-Rg) (Homo sapiens) (UniProt P16581)",
    "pKd": 5.89
  }
]

* * *

SUBJECT_OF_TEST: Wheat germ agglutinin (WGA) (Triticum vulgare) (UniProt P10968)
Sequence: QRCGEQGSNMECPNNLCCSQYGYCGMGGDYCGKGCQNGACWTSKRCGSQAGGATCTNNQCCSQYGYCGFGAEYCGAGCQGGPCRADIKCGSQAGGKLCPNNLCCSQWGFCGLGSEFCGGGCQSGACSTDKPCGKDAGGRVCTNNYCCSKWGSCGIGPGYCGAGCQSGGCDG
ASSAY_INFO: filter
SETTINGS: <3% at […]
READOUT_LABEL: Kd

[
  {
    "SEQUENCE_STRING": "CTACCTACGATCTGACTAGCCGAGGTAGTCGTTATAGGGTRCRCACGACACAAARCRGTRGCTTACTCTCATGTAGTTCC [LD127]",
    "RECORDED_MEASUREMENT": "> 100 µM"
  }
]

* * *

SUBJECT_OF_TEST: P-selectin (PS-Rg) (Homo sapiens)
Sequence: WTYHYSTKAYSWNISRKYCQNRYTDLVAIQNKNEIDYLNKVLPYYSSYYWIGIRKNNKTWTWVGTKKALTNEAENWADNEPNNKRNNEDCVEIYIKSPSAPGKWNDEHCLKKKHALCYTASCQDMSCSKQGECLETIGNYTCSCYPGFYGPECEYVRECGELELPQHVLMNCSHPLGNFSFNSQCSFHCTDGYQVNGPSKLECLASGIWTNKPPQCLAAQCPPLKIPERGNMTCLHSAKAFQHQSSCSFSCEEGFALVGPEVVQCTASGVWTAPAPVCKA
ASSAY_INFO: filter
SETTINGS: room temperature

[
  {
    "SEQUENCE_STRING": "CTACCTACGATCTGACTAGCCGAGGTAGTCGTTATAGGGTRCRCACGACACAAARCRGTRGCTTACTCTCATGTAGTTCC [LD127]",
    "SCALE_UNIT": "µM",
    "Kd": 0.78
  }
]

* * *

SUBJECT_OF_TEST: L-selectin (LS-Rg) (Homo sapiens)
Sequence: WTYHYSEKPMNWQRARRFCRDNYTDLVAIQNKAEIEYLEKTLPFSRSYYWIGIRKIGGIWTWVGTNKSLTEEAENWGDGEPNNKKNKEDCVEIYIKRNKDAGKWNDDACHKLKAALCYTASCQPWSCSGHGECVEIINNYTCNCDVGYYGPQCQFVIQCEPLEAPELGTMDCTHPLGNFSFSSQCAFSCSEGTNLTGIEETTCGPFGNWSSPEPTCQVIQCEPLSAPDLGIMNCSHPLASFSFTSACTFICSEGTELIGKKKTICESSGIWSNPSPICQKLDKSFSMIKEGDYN
ASSAY_INFO: filter
SETTINGS: 2'-NH2 on all C and U; 4 C; biphasic, fraction 0.75, second Kd 254 nM
READOUT_LABEL: Kd (nM)

[
  {
    "SEQUENCE_STRING": "GGGAGGACGAUGCGGUCCAGAGCGUGAAGAUCAACGUCCCGGNGUCGAAGACAGACGACUCGCCCGA [F14.70]",
    "SUBJECT_OF_TEST": "L-selectin (LS-Rg) (Homo sapiens)",
    "SCALE_UNIT": "nM",
    "RECORDED_MEASUREMENT": 2
  }
]

Origin of measurements: patent US20030059769
